- TEST_SYSTEM: DNA topoisomerase II (Homo sapiens) (UniProt P11388+Q02880)
- ASSAY_COMMENT: Compound tested for ability to form a cellular covalent topoisomerase II-DNA complex.
- Format: functional
The compounds listed here are annotated with their Protein-DNA complex formation.
The reply should be a number in %, with the unit left off.

Past entries and their recorded results:
STRUCTURE_SMILES | TEST_SYSTEM | UNIT_STRING | Protein-DNA complex formation
COc1cc([C@@H]2c3cc4c(cc3[C@@H](OC(=O)c3cccc(N)c3)[C@H]3COC(=O)[C@H]23)OCO4)cc(OC)c1O | DNA topoisomerase II (Homo sapiens) (UniProt P11388+Q02880) | % | 100
COc1cc([C@@H]2c3cc4c(cc3[C@@H](NCc3ccc(C#N)cc3)[C@H]3COC(=O)[C@H]23)OCO4)cc(OC)c1O | DNA topoisomerase II (Homo sapiens) (UniProt P11388+Q02880) | % | 284
COc1cc([C@@H]2c3cc4c(cc3[C@@H](NC(=O)c3ccc(OC(C)=O)cc3)[C@H]3COC(=O)[C@H]23)OCO4)cc(OC)c1O | DNA topoisomerase II (Homo sapiens) (UniProt P11388+Q02880) | % | 137
COc1cc([C@@H]2c3cc4c(cc3[C@@H](Nc3ccc(Cl)cc3)[C@H]3COC(=O)[C@H]23)OCO4)cc(OC)c1O | DNA topoisomerase II (Homo sapiens) (UniProt P11388+Q02880) | % | 99
COc1cc([C@@H]2c3cc4c(cc3[C@@H](Nc3cccc(CO)c3)[C@H]3COC(=O)[C@H]23)OCO4)cc(OC)c1O | DNA topoisomerase II (Homo sapiens) (UniProt P11388+Q02880) | % | 235

Exercise: State the measured Protein-DNA complex formation (DNA topoisomerase II (Homo sapiens) (UniProt P11388+Q02880)) of COc1cc([C@@H]2c3cc4c(cc3[C@@H](Nc3ccc(C#N)cc3)[C@H]3COC(=O)[C@H]23)OCO4)cc(OC)c1O
Solution: 211

Exercise: Give the observed Protein-DNA complex formation of COc1cc([C@@H]2c3cc4c(cc3[C@@H](O[C@@H]3O[C@@H]5CO[C@@H](C)O[C@H]5[C@H](O)[C@H]3O)[C@H]3COC(=O)[C@H]23)OCO4)cc(OC)c1O for DNA topoisomerase II (Homo sapiens) (UniProt P11388+Q02880).
Solution: 100

Exercise: Under DNA topoisomerase II (Homo sapiens) (UniProt P11388+Q02880): report Protein-DNA complex formation of COc1cc([C@@H]2c3cc4c(cc3[C@@H](Nc3ccc(Oc5ccccc5)cc3)[C@H]3COC(=O)[C@H]23)OCO4)cc(OC)c1O .
Solution: 97

Exercise: Would you please give the reported Protein-DNA complex formation of COc1cc([C@@H]2c3cc4c(cc3[C@@H](NCc3cccc(Cl)c3)[C@H]3COC(=O)[C@H]23)OCO4)cc(OC)c1O with DNA topoisomerase II (Homo sapiens) (UniProt P11388+Q02880)?
Solution: 159

----------
- TEST_SYSTEM: DNA topoisomerase II (Homo sapiens) (UniProt P11388+Q02880)
- ASSAY_COMMENT: Compound tested for ability to form a cellular covalent topoisomerase II-DNA complex.
- Type: functional
QUANTITY: Protein-DNA complex formation (%)
Lab book: enter the figure in %, no units written.

# example entries with known answers
STRUCTURE_SMILES | Protein-DNA complex formation, %
COc1cc([C@@H]2c3cc4c(cc3[C@@H](NCc3ccc(F)cc3)[C@H]3COC(=O)[C@H]23)OCO4)cc(OC)c1O | 169
COc1cc([C@@H]2c3cc4c(cc3[C@@H](Nc3ccc(Br)cc3)[C@H]3COC(=O)[C@H]23)OCO4)cc(OC)c1O | 179
CCOC(=O)CC[C@H](NC(=O)c1ccc(N[C@@H]2c3cc4c(cc3[C@@H](c3cc(OC)c(O)c(OC)c3)[C@H]3C(=O)OC[C@@H]32)OCO4)cc1)C(=O)OCC | 83
COc1cc([C@@H]2c3cc4c(cc3[C@H](N)[C@H]3COC(=O)[C@H]23)OCO4)cc(OC)c1O | 8
COc1cc([C@@H]2c3cc4c(cc3[C@@H](NCc3cccc(C#N)c3)[C@H]3COC(=O)[C@H]23)OCO4)cc(OC)c1O | 225

Exercise: Return Protein-DNA complex formation (reported value) for this compound: COc1cc(CN[C@@H]2c3cc4c(cc3[C@@H](c3cc(OC)c(O)c(OC)c3)[C@H]3C(=O)OC[C@@H]32)OCO4)cc(OC)c1
Solution: 144

Exercise: Look up and state reported Protein-DNA complex formation for COc1cc([C@@H]2c3cc4c(cc3[C@@H](NCc3ccccc3)[C@H]3COC(=O)[C@H]23)OCO4)cc(OC)c1O
Solution: 181

Exercise: For the compound COc1cc([C@@H]2c3cc4c(cc3[C@@H](NCc3ccc([N+](=O)[O-])cc3)[C@H]3COC(=O)[C@H]23)OCO4)cc(OC)c1O , give its reported Protein-DNA complex formation.
Solution: 216

Exercise: Please report Protein-DNA complex formation for the following compound: CCCN[C@@H]1c2cc3c(cc2[C@@H](c2cc(OC)c(O)c(OC)c2)[C@H]2C(=O)OC[C@@H]21)OCO3
Solution: 69.7

Exercise: Consider the compound COc1cc([C@@H]2c3cc4c(cc3[C@@H](Nc3ccccn3)[C@H]3COC(=O)[C@H]23)OCO4)cc(OC)c1O . State its measured Protein-DNA complex formation.
Solution: 97

Exercise: Write down Protein-DNA complex formation measured for item COc1cc([C@@H]2c3cc4c(cc3[C@@H](Nc3cccc(C(C)=O)c3)[C@H]3COC(=O)[C@H]23)OCO4)cc(OC)c1O
Solution: 150

Exercise: Identify measured Protein-DNA complex formation corresponding to COc1cc([C@@H]2c3cc4c(cc3[C@@H](Nc3ccc5c(c3)OCO5)[C@H]3COC(=O)[C@H]23)OCO4)cc(OC)c1O
Solution: 164

Exercise: Consider the compound COc1cc([C@@H]2c3cc4c(cc3[C@@H](Nc3cc(F)cc(F)c3)[C@H]3COC(=O)[C@H]23)OCO4)cc(OC)c1O and give its recorded Protein-DNA complex formation.
Solution: 115

Exercise: Respond only with Protein-DNA complex formation recorded for COc1cc([C@@H]2c3cc4c(cc3[C@@H](NCc3cccc([N+](=O)[O-])c3)[C@H]3COC(=O)[C@H]23)OCO4)cc(OC)c1O
Solution: 130

Exercise: Dear colleague, please send me the reported Protein-DNA complex formation for COc1cc([C@@H]2c3cc4c(cc3[C@@H](Nc3ccc5c(c3)OCCO5)[C@H]3COC(=O)[C@H]23)OCO4)cc(OC)c1O when you can.
Solution: 279

Exercise: // Input: COc1cc([C@@H]2c3cc4c(cc3[C@@H](Nc3cccnc3)[C@H]3COC(=O)[C@H]23)OCO4)cc(OC)c1O . Output its Protein-DNA complex formation only.
Solution: 148

Exercise: Supply recorded Protein-DNA complex formation for COc1cc([C@@H]2c3cc4c(cc3[C@@H](NCc3ccccc3[N+](=O)[O-])[C@H]3COC(=O)[C@H]23)OCO4)cc(OC)c1O here.
Solution: 144

Exercise: Tell me its Protein-DNA complex formation given COc1cc([C@@H]2c3cc4c(cc3[C@@H](NCc3ccc(C(F)(F)F)cc3)[C@H]3COC(=O)[C@H]23)OCO4)cc(OC)c1O as the entry.
Solution: 99

Exercise: Give Protein-DNA complex formation for the following compound: COc1cc([C@@H]2c3cc4c(cc3[C@@H](Oc3ccc(F)cc3)[C@H]3COC(=O)[C@H]23)OCO4)cc(OC)c1O
Solution: 57
